Exercise: for every item that follows, state its recorded IC50.
- testProtocol: hexokinase 1 inhibition, dose response, selectivity assay for HKDC1 inhibitor project, biochemical (AID 504763)
Answers are plain numbers, in µM.

Reference set (3 entries):
compound	IC50 / µM
O=C1C(Cl)=C(N2CCC(C(=O)O)CC2)C(=O)c2ccccc21	13.5
CCOC(=O)c1ccc(NC(=O)CSc2n[nH]c(-c3ccncc3)n2)cc1	10.5
O=C1C(N2CCOCC2)=C(n2nnc3ccccc32)C(=O)c2ccccc21	7.58

Turning to the following compound.
// recorded IC50 for COc1ccc2cc(CCNC(=O)c3ccc(S(=O)(=O)N4CCCC4)cc3)c(O)nc2c1 [SMR000805966] : 7.34

---

- testProtocol: hexokinase 1 inhibition, dose response, selectivity assay for HKDC1 inhibitor project, biochemical (AID 504763)
pIC50: −log10 of the molar value.
Record form. Attribute: pIC50. Fill in for each entry.

compound	measurementType	recordedValue
COCc1cc(C2C(C(=O)c3ccco3)C(=O)C(=O)N2CCOCCO)ccc1O (stereo not drawn)	pIC50	< 4.10
O=C(/C=C/c1ccco1)NCC(=O)NNC1=c2ccccc2=NC1=O [MLS001075666]	pIC50	< 4.10

Recorded pIC50 (compound "Cc1cc(Oc2ccc(C(C)(C)C)cc2)nc(N2CCOCC2)n1" ): < 4.10
